Target: Endothelin receptor type B (Sus scrofa)
Assay: Binding activity against Endothelin B receptor 0f Porcine cerebellum membranes
Residues, ends and D or L forms follow the SMILES beside them.

Compound	Target of assay	IC50
CC(C)C[C@@H]1NC(=O)[C@@H](C(C)C)NC(=O)[C@@H]2CCCN2C(=O)[C@@H](CCC(=O)O)NC(=O)[C@@H](Cc2c[nH]c3ccccc23)NC1=O (HELM PEPTIDE1{L.[dW].[dE].P.[dV]}$PEPTIDE1,PEPTIDE1,1:R1-5:R2$$$V2.0)	Endothelin receptor type B (Sus scrofa)	> 100 µM
CC[C@H](C)[C@H]1NC(=O)[C@H](C)NC(=O)[C@@H](CCC(=O)O)NC(=O)[C@@H](Cc2c[nH]c3ccccc23)NC(=O)[C@H](CC(C)C)NC1=O (HELM PEPTIDE1{A.[CC[C@H](C)[C@@H](N[*:1])C(=O)[*:2]].L.[dW].[dE]}$PEPTIDE1,PEPTIDE1,1:R1-5:R2$$$V2.0)	Endothelin receptor type B (Sus scrofa)	> 100 µM
CC(C)[C@H]1NC(=O)[C@H](C)NC(=O)[C@@H](CC(=O)O)NC(=O)[C@@H](Cc2c[nH]c3ccccc23)NC(=O)[C@@H]2CCCN2C1=O (HELM PEPTIDE1{A.[dV].P.[dW].[dD]}$PEPTIDE1,PEPTIDE1,1:R1-5:R2$$$V2.0)	Endothelin receptor type B (Sus scrofa)	> 100 µM
